src = paper PMC6126370

ASSAY INFO: Clinical pharmacokinetics of PU-H71 in plasma and urine
Format: in vivo, human
EXPERIMENTAL CONDITIONS: human, plasma, iv, 200 mg/m^2
QUANTITY KIND: AUC(0-inf) (µM·h)

1. CC(C)NCCCn1c(Sc2cc3c(cc2I)OCO3)nc2c(N)ncnc21 [PU-H71] ... 41.3

* * *

ASSAY INFO: Clinical pharmacokinetics of PU-H71 in plasma and urine
Type: in vivo, human
EXPERIMENTAL CONDITIONS: human, plasma, iv, 266 mg/m^2
QUANTITY KIND: Cmax (µM)

1) CC(C)NCCCn1c(Sc2cc3c(cc2I)OCO3)nc2c(N)ncnc21 ... 7.8
